Listed sequences paired with reported self-splicing fitness (ln)
- Experiment notes: self-splicing fitness, log relative to wild type (ln ratio); higher = more splicing; Tetrahymena group I intron in knt gene, E. coli kanamycin selection, DiMSum; sequences stand for … in CUCUCU…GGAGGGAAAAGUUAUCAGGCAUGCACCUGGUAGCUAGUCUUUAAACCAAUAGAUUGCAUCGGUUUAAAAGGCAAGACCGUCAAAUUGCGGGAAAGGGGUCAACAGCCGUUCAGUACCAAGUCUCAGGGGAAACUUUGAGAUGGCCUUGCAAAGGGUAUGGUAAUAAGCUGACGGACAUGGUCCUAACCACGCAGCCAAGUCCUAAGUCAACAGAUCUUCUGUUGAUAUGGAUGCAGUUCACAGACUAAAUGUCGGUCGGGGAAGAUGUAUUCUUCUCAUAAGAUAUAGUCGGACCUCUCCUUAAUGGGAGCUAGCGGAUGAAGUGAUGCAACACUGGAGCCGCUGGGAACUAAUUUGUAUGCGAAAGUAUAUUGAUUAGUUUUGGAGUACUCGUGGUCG;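 further: selection with 25 µg/mL kanamycin versus none on LB agar overnight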
- Cond: 37 °C
Endpoint name: self-splicing fitness (ln)

GAGAAGCAAUAUUACGUACU: 0.0321
UAUGAGCAAUAUUACGGGAU: -2.35
CGUUAGCAAUAUUACGGUGC: -2.59
AGUCAGCAAUAUUACGAAGG: -1.46
UUGGAGCAAUAUUACGUUAA: -1.91
GACUAGCAAUAUUACGGUCG: -0.165
GGCAAGCAAUAUUACGUGCC: -1.47
CAUCAGCAAUAUUACGCGGG: -0.735
UAAGAGCAAUAUUACGACGC: -2.07
UAUUAGCAAUAUUACGACGU: -0.561
AGCGAGCAAUAUUACGGUAG: -1.73
AAACAGCAAUAUUACGAACG: -0.625
CUCUAGCAAUAUUACGGCCG: -2.2
UGGGAGCAAUAUUACGUCUU: -2.54
CUUAAGCAAUAUUACGGAAU: -2.29
AUGUAGCAAUAUUACGUGAA: -1.22
GAGAAGCAAUAUUACGAUCC: -0.963
GGUGAGCAAUAUUACGUCGU: -1.91

====

- Experiment notes: self-splicing fitness, log relative to wild type (ln ratio); higher = more splicing; Tetrahymena group I intron in knt gene, E. coli kanamycin selection, DiMSum; sequences stand for … in CUCUCU…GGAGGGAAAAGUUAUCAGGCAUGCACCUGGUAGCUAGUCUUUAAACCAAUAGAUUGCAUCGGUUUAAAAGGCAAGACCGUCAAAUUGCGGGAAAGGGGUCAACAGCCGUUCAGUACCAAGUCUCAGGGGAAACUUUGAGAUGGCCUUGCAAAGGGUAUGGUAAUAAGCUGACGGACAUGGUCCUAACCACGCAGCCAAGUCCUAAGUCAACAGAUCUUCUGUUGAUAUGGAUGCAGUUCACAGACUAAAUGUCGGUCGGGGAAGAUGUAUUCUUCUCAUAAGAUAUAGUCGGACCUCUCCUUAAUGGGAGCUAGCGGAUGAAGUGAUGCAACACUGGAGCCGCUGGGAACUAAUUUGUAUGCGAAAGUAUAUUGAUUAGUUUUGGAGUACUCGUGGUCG
- Cond: 30 °C
Classification field: enter Condition met for self-splicing fitness (ln) values not below -2, Condition not met for values below it.

CCAGAGCAAUAUUACGCCAG: Condition not met
AUUUAGCAAUAUUACGUAUU: Condition not met
GAUUAGCAAUAUUACGAGCA: Condition met
UGUCAGCAAUAUUACGGAGA: Condition met
GGAAAGCAAUAUUACGGUGA: Condition met
CUCUAGCAAUAUUACGGAAC: Condition not met
UGUUAGCAAUAUUACGGCGC: Condition not met
AACUAGCAAUAUUACGAUCG: Condition met
CACAAGCAAUAUUACGGCAU: Condition not met
CUCGAGCAAUAUUACGGGUA: Condition not met
GGAAAGCAAUAUUACGCACG: Condition met
AACGAGCAAUAUUACGUCAC: Condition not met
GAACAGCAAUAUUACGGGAG: Condition not met
CCUUAGCAAUAUUACGGCAG: Condition met
AUAAAGCAAUAUUACGCUCA: Condition met
AGAUAGCAAUAUUACGUUUU: Condition not met
UCUCAGCAAUAUUACGGUUU: Condition met
CGGAAGCAAUAUUACGCAUU: Condition not met
GCCGAGCAAUAUUACGUAAA: Condition not met
UGGAAGCAAUAUUACGGUUU: Condition not met
UACGAGCAAUAUUACGGUUC: Condition not met
AUUUAGCAAUAUUACGGGCU: Condition not met
CUUGAGCAAUAUUACGAGGC: Condition not met
UCGGAGCAAUAUUACGUCCC: Condition met
UUUUAGCAAUAUUACGUUCA: Condition met
CACGAGCAAUAUUACGAGUA: Condition not met
